For each entry below, report its HDAC6 selectivity (fold) value.
Target: human recombinant HDAC6 (Homo sapiens, UniProt Q9UBN7)
Construct: purchased Calbiochem 382180
Sequence (Q9UBN7 1-1215): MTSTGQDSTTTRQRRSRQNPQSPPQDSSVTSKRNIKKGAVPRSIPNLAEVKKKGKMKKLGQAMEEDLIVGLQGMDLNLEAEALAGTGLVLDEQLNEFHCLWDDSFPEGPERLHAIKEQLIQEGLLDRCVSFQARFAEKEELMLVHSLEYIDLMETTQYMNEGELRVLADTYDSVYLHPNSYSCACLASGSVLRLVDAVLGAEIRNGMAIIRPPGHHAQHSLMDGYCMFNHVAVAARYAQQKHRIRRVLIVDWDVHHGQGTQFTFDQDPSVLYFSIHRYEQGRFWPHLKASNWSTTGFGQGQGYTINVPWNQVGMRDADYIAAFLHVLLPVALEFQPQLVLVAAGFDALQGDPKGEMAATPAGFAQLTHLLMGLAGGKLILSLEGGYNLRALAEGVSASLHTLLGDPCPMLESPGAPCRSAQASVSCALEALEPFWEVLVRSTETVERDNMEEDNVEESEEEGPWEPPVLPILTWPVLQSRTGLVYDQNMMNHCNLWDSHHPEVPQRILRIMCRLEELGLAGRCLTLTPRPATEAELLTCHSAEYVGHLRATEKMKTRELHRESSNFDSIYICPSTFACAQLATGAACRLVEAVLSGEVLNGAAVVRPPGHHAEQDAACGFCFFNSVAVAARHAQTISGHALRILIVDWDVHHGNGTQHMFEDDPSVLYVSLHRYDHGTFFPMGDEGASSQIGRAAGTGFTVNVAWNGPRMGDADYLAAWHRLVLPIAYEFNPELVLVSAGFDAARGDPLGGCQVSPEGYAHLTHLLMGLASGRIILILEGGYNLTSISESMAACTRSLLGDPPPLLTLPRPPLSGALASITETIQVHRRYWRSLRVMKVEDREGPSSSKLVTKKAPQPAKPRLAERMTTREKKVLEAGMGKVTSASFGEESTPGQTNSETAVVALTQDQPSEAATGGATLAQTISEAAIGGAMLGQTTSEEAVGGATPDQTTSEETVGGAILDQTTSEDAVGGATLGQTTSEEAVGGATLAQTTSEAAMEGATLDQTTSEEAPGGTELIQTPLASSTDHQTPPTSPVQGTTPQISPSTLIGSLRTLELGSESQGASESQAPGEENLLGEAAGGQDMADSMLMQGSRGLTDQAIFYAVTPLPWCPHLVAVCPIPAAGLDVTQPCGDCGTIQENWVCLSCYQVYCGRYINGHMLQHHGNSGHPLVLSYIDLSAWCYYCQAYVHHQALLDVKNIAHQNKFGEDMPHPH
Assay: HDAC6 enzyme activity inhibition assay (HDAC Fluorimetric Drug Discovery Kit)
Format: biochemical
Settings: HDAC6 over HDAC1
Entry rule: numbers only, all in fold.

q: Find HDAC6 selectivity (fold) (human recombinant HDAC6 (Homo sapiens, UniProt Q9UBN7)) for the entry CN1CCN(C(=O)N(Cc2ccc(-c3nnc(C(F)F)o3)cc2F)c2ccccc2)CC1 [Compound 21378]
a: 500

q: Find HDAC6 selectivity (fold) (human recombinant HDAC6 (Homo sapiens, UniProt Q9UBN7)) for the entry O=C(N1CCOCC1)N(Cc1ccc(-c2nnc(C(F)(F)F)o2)cn1)c1ccccc1 [Compound 21336]
a: 105

q: Find HDAC6 selectivity (fold) (human recombinant HDAC6 (Homo sapiens, UniProt Q9UBN7)) for the entry CCN1CCN(C(=O)N(Cc2ccc(-c3nnc(C(F)(F)F)o3)cc2)c2ccc(OC)cc2)CC1 [Compound 21874]
a: 20

q: Find HDAC6 selectivity (fold) (human recombinant HDAC6 (Homo sapiens, UniProt Q9UBN7)) for the entry C[C@@H]1CN(Cc2ccc(N(Cc3ccc(-c4nnc(C(F)F)o4)cc3F)C(=O)N3CCS(=O)(=O)CC3)cc2)C[C@H](C)N1Cc1ccccc1 [Compound 21926]
a: 28
